# key: entry, value: Emax
# study-target: PPAR Alpha (Homo sapiens, UniProt Q07869)
# Sequence (Q07869 whole entry): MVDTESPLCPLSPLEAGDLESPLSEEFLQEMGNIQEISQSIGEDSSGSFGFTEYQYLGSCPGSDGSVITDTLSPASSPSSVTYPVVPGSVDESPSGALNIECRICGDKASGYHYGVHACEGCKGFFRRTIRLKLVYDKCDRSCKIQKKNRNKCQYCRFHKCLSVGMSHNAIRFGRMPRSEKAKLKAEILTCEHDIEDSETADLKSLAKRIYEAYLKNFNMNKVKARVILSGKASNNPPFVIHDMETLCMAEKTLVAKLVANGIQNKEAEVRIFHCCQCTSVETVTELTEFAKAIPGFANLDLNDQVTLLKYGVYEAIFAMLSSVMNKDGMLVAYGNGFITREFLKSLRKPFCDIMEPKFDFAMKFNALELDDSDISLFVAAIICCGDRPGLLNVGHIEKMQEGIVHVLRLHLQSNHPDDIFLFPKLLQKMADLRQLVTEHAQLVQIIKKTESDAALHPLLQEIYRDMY
# protocol-summary: PathHunter NHR protein interaction / nuclear translocation agonist test, PPAR Alpha
# Assay type: cell-based
# measurement-setup: read-out: PPAR Alpha Maximum Activation Response %

CSc1ccc(C(=O)C2CN(S(N)(=O)=O)CC2c2cc(C)c(OC(C)(C)C(=O)O)c(C)c2)cc1 (single isomer, unassigned) [Compound 19]
80 to 100%

# evaluate next
Write Emax of CSc1ccc(C(=O)C2CN(C(=O)Oc3ccc(Br)cc3)CC2c2cc(C)c(OC(C)(C)C(=O)O)c(C)c2)cc1 (stereo not drawn) [Compound 46] ; system used: PPAR Alpha (Homo sapiens, UniProt Q07869) 80 to 100%
